assay: Solubility of different salt types in biological vehicle (SGF, FeSSIF, FaSSIF), HPLC
Type: physicochemical
cond: SGF, 37° C., 4 hours
measurement.kind: Concentration (µg/mL)
Number in µg/mL, nothing else.

Q: // Concentration lookup, key: Cc1cccc(-c2nn3c(c2-c2ccc4ncnn4c2/C=C/C(N)=O)CCC3)n1.Cl [Hydrochloride]
Result: 4343

Q: // Concentration lookup, key: Cc1cccc(-c2nn3c(c2-c2ccc4ncnn4c2/C=C/C(N)=O)CCC3)n1 [Sulphate]
Result: 4885

Q: // Concentration lookup, key: Cc1cccc(-c2nn3c(c2-c2ccc4ncnn4c2/C=C/C(N)=O)CCC3)n1 [Compound of formula (I)]
Result: 1997

Q: // Concentration lookup, key: CS(=O)(=O)O.Cc1cccc(-c2nn3c(c2-c2ccc4ncnn4c2/C=C/C(N)=O)CCC3)n1
Result: 5103

Q: // Concentration lookup, key: Cc1ccc(S(=O)(=O)O)cc1.Cc1cccc(-c2nn3c(c2-c2ccc4ncnn4c2/C=C/C(N)=O)CCC3)n1
Result: 1610

---

assay: Solubility of different salt types in biological vehicle (SGF, FeSSIF, FaSSIF), HPLC
Type: physicochemical
cond: FaSSIF, 37° C., 24 hours
Threshold check on Concentration: at or above 5000 µg/mL gives 1, strictly below gives -1.

Q: Quick check, Concentration >= 5000 µg/mL? Cc1cccc(-c2nn3c(c2-c2ccc4ncnn4c2/C=C/C(N)=O)CCC3)n1 [Compound of formula (I)]
Result: -1

Q: Quick check, Concentration >= 5000 µg/mL? Cc1ccc(S(=O)(=O)O)cc1.Cc1cccc(-c2nn3c(c2-c2ccc4ncnn4c2/C=C/C(N)=O)CCC3)n1
Result: 1

Q: Quick check, Concentration >= 5000 µg/mL? CS(=O)(=O)O.Cc1cccc(-c2nn3c(c2-c2ccc4ncnn4c2/C=C/C(N)=O)CCC3)n1
Result: -1

Q: Quick check, Concentration >= 5000 µg/mL? Cc1cccc(-c2nn3c(c2-c2ccc4ncnn4c2/C=C/C(N)=O)CCC3)n1.Cl [Hydrochloride]
Result: -1

---

assay: Solubility of different salt types in biological vehicle (SGF, FeSSIF, FaSSIF), HPLC
Assay type: physicochemical
cond: FaSSIF, 37° C., 24 hours
measurement.kind: State

The examples below pair each entry with its known result.
• CS(=O)(=O)O.Cc1cccc(-c2nn3c(c2-c2ccc4ncnn4c2/C=C/C(N)=O)CCC3)n1 = turbid
• Cc1cccc(-c2nn3c(c2-c2ccc4ncnn4c2/C=C/C(N)=O)CCC3)n1 [Sulphate] = soluble
• Cc1cccc(-c2nn3c(c2-c2ccc4ncnn4c2/C=C/C(N)=O)CCC3)n1 [Compound of formula (I)] = turbid
• Cc1ccc(S(=O)(=O)O)cc1.Cc1cccc(-c2nn3c(c2-c2ccc4ncnn4c2/C=C/C(N)=O)CCC3)n1 = clear

Read the next record carefully.
Q: // State lookup, key: Cc1cccc(-c2nn3c(c2-c2ccc4ncnn4c2/C=C/C(N)=O)CCC3)n1.Cl [Hydrochloride]
Result: soluble

---

assay: Solubility of different salt types in biological vehicle (SGF, FeSSIF, FaSSIF), HPLC
Type: physicochemical
cond: FeSSIF, 37° C., 24 hours
measurement.kind: log10(Concentration) (log10 of the value in µg/mL)
Remember, log10 of Concentration, in µg/mL.

Q: // log10(Concentration) lookup, key: CS(=O)(=O)O.Cc1cccc(-c2nn3c(c2-c2ccc4ncnn4c2/C=C/C(N)=O)CCC3)n1
Result: 2.97

Q: // log10(Concentration) lookup, key: Cc1ccc(S(=O)(=O)O)cc1.Cc1cccc(-c2nn3c(c2-c2ccc4ncnn4c2/C=C/C(N)=O)CCC3)n1
Result: 4.02

Q: // log10(Concentration) lookup, key: Cc1cccc(-c2nn3c(c2-c2ccc4ncnn4c2/C=C/C(N)=O)CCC3)n1 [Compound of formula (I)]
Result: 2.80

Q: // log10(Concentration) lookup, key: Cc1cccc(-c2nn3c(c2-c2ccc4ncnn4c2/C=C/C(N)=O)CCC3)n1 [Sulphate]
Result: 3.18

Q: // log10(Concentration) lookup, key: Cc1cccc(-c2nn3c(c2-c2ccc4ncnn4c2/C=C/C(N)=O)CCC3)n1.Cl [Hydrochloride]
Result: 3.03

---

assay: Solubility of different salt types in biological vehicle (SGF, FeSSIF, FaSSIF), HPLC
Assay type: physicochemical
cond: FeSSIF, 37° C., 4 hours
Can you tell me Concentration for the items I'm about to list?
Number in µg/mL, nothing else.

Q: // Concentration lookup, key: Cc1ccc(S(=O)(=O)O)cc1.Cc1cccc(-c2nn3c(c2-c2ccc4ncnn4c2/C=C/C(N)=O)CCC3)n1 [Compound of formula (II)]
Result: 10840

Q: // Concentration lookup, key: Cc1cccc(-c2nn3c(c2-c2ccc4ncnn4c2/C=C/C(N)=O)CCC3)n1 [Sulphate]
Result: 1530

Q: // Concentration lookup, key: Cc1cccc(-c2nn3c(c2-c2ccc4ncnn4c2/C=C/C(N)=O)CCC3)n1 [Compound of formula (I)]
Result: 565

Q: // Concentration lookup, key: Cc1cccc(-c2nn3c(c2-c2ccc4ncnn4c2/C=C/C(N)=O)CCC3)n1.Cl [Hydrochloride]
Result: 1028

Q: // Concentration lookup, key: CS(=O)(=O)O.Cc1cccc(-c2nn3c(c2-c2ccc4ncnn4c2/C=C/C(N)=O)CCC3)n1
Result: 852

---

assay: Solubility of different salt types in biological vehicle (SGF, FeSSIF, FaSSIF), HPLC
Format: physicochemical
cond: FeSSIF, 37° C., 4 hours
measurement.kind: State

- Cc1cccc(-c2nn3c(c2-c2ccc4ncnn4c2/C=C/C(N)=O)CCC3)n1 [Compound of formula (I)]: turbid
- Cc1ccc(S(=O)(=O)O)cc1.Cc1cccc(-c2nn3c(c2-c2ccc4ncnn4c2/C=C/C(N)=O)CCC3)n1: clear
- Cc1cccc(-c2nn3c(c2-c2ccc4ncnn4c2/C=C/C(N)=O)CCC3)n1.Cl [Hydrochloride]: turbid
- CS(=O)(=O)O.Cc1cccc(-c2nn3c(c2-c2ccc4ncnn4c2/C=C/C(N)=O)CCC3)n1: turbid

Read the next record carefully.
Q: // State lookup, key: Cc1cccc(-c2nn3c(c2-c2ccc4ncnn4c2/C=C/C(N)=O)CCC3)n1 [Sulphate]
Result: turbid

---

assay: Solubility of different salt types in biological vehicle (SGF, FeSSIF, FaSSIF), HPLC
Assay type: physicochemical
cond: SGF, 37° C., 4 hours, supernatant
measurement.kind: pH value
// no unit string in output, number only

Q: // pH value lookup, key: Cc1ccc(S(=O)(=O)O)cc1.Cc1cccc(-c2nn3c(c2-c2ccc4ncnn4c2/C=C/C(N)=O)CCC3)n1
Result: 3.45

Q: // pH value lookup, key: Cc1cccc(-c2nn3c(c2-c2ccc4ncnn4c2/C=C/C(N)=O)CCC3)n1 [Sulphate]
Result: 1.77

Q: // pH value lookup, key: Cc1cccc(-c2nn3c(c2-c2ccc4ncnn4c2/C=C/C(N)=O)CCC3)n1.Cl [Hydrochloride]
Result: 2.04

Q: // pH value lookup, key: CS(=O)(=O)O.Cc1cccc(-c2nn3c(c2-c2ccc4ncnn4c2/C=C/C(N)=O)CCC3)n1
Result: 2.08

Q: // pH value lookup, key: Cc1cccc(-c2nn3c(c2-c2ccc4ncnn4c2/C=C/C(N)=O)CCC3)n1 [Compound of formula (I)]
Result: 2.37

---

assay: Solubility of different salt types in biological vehicle (SGF, FeSSIF, FaSSIF), HPLC
Type: physicochemical
cond: SGF, 37° C., 24 hours
Threshold check on Concentration: at or above 5000 µg/mL gives label 1, strictly below gives label 0.

Q: Quick check, Concentration >= 5000 µg/mL? Cc1cccc(-c2nn3c(c2-c2ccc4ncnn4c2/C=C/C(N)=O)CCC3)n1 [Compound of formula (I)]
Result: label 0

Q: Quick check, Concentration >= 5000 µg/mL? CS(=O)(=O)O.Cc1cccc(-c2nn3c(c2-c2ccc4ncnn4c2/C=C/C(N)=O)CCC3)n1
Result: label 1

Q: Quick check, Concentration >= 5000 µg/mL? Cc1ccc(S(=O)(=O)O)cc1.Cc1cccc(-c2nn3c(c2-c2ccc4ncnn4c2/C=C/C(N)=O)CCC3)n1 [Compound of formula (II)]
Result: label 0

Q: Quick check, Concentration >= 5000 µg/mL? Cc1cccc(-c2nn3c(c2-c2ccc4ncnn4c2/C=C/C(N)=O)CCC3)n1.Cl [Hydrochloride]
Result: label 0

---

measurement.target: TGF-βRI (Homo sapiens, UniProt P36897)
Sequence (P36897 34-503): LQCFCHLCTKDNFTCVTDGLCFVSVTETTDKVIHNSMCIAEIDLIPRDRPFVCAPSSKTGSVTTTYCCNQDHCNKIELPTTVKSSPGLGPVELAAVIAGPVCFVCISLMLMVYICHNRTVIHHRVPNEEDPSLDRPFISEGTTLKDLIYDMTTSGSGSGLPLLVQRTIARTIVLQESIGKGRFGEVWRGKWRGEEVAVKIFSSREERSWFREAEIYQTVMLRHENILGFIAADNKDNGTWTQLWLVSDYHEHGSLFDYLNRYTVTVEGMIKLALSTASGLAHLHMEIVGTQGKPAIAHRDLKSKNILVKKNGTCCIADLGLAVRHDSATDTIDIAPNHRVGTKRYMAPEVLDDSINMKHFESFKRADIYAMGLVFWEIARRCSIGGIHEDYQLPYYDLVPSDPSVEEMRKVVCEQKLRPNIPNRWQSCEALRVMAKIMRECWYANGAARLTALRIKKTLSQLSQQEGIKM
measurement.kind: IC50 (nM)
Number in nM, nothing else.

Q: // IC50 lookup, key: Cc1cccc(-c2nn3c(c2-c2ccc4ncnn4c2/C=C/C(N)=O)CCC3)n1
Result: 40
